studySystem: T1, Peptide 4: Biotin-AGGGGSGGGGSGGGGSAAA-Tyr-acid (N-terminal biotin; C-terminal acid)
T1 construct: control peptide without PC
T1 peptide: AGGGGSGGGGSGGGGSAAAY
methodSummary: scFv ELISA
Collected OD450 values appear next to each entry.
Record the value in OD450, omitting the unit from your answer.

PcOxP_DB03_E01 (scFv, V domains shown, scFv in periplasmic extract) VH: EVQLLESGGGLVQPGGSLRLSCAASGFTFSDYYMEWVRQAPGKGLEWVAASRNKANDYTVEYADSVKGRFTISRDNSKNTLYLQMNSLRAEDTAVYYCARDYYGSSYWYFDVWGQGTLVTVSS VL: DIQMTQSPSSLSASVGDRVTITCTASESLYSSKHKVHYLAWYQQKPGKAPKLLIYGTSNRYIGVPSRFSGSGSGTDFTLTISSLQPEDFATYYCAQFYEYPLTFGGGTKVEIK ... 0.06
PcOxP_DB02_C11 (scFv, V domains shown, scFv in periplasmic extract) VH: EVQLLESGGGLVQPGGSLRLSCAASGFTSSDFYMEWVRQAPGKGLEWVAASRNKANDYYTEYADSVKGRFTISRDNSKNTLYLQMNSLRAEDTAVYYCARDYYGSSYWYFDVWGQGTLVTVSS VL: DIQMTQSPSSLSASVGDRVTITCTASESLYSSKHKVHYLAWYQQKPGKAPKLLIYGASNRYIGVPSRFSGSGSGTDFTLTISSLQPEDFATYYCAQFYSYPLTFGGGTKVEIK ... 0.05

--- query ---
PcOxP_DB01_H04 (scFv, V domains shown, scFv in periplasmic extract) VH: EVQLLESGGGLVQPGGSLRLSCAASGFAFSDFYMEWVRQAPGKGLEWVAASRNKANDYTTEYADSVKGRFTISRDNSKNTLYLQMNSLRAEDTAVYYCARDYYGSHYWYFDVWGQGTLVTVSS VL: DIQMTQSPSSLSASVGDRVTITCTASESLYSSKHKVHYLAWYQQKPGKAPKLLIYGASNLQSGVPSRFSGSGSGTDFTLTISSLQPEDFATYYCAQFYYYPLTFGGGTKVEIK yielded OD450 of 0.07
